Measured values drawn from patent US20250197387A1 for this set.

system.tested: BCL-XL (Homo sapiens, UniProt Q07817)
Construct: endogenous in cells; host or cells: MOLT-4
Sequence (Q07817 whole entry): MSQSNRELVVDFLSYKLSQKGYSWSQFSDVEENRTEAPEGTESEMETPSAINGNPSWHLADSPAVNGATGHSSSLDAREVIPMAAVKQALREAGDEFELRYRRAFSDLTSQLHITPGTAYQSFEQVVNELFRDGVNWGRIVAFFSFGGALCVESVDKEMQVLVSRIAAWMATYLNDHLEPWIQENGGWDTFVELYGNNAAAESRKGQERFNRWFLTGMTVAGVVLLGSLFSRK
method.summary: Bcl-xL ELISA degradation in MOLT-4 cells, 6 h
Assay type: cell-based
The following molecules are listed with their measured Dmax values.

Illustrative cases are given below, each with its answer.
- molecule: "Cc1ncsc1-c1ccc([C@H](C)NC(=O)[C@@H]2C[C@@H](O)CN2C(=O)[C@@H](NC(=O)C2CCN(c3ccc(S(=O)(=O)NC(=O)c4nc(N5CCc6cccc(C(=O)Nc7nc8ccccc8s7)c6C5)ccc4-c4cnn(CC5CCOCC5)c4C)cc3)CC2)C(C)(C)C)cc1 [I-260]"
  reported.result: "50 to 75%"
- molecule: "C#Cc1ccc(CNC(=O)[C@@H]2C[C@@H](O)CN2C(=O)[C@@H](NC(=O)CCCCCS(=O)(=O)NC(=O)c2nc(N3CCc4cccc(C(=O)Nc5nc6ccccc6s5)c4C3)ccc2-c2cnn(CC3CCCCC3)c2C)C(C)(C)CCOP(=O)(O)O)cc1 [I-417]"
  reported.result: "50 to 75%"
- molecule: "C#Cc1ccc([C@H](COC)NC(=O)[C@@H]2C[C@@H](O)CN2C(=O)[C@@H](NC(=O)CCCCCS(=O)(=O)NC(=O)c2nc(N3CCc4cccc(C(=O)Nc5nc6cccnc6s5)c4C3)ccc2-c2cnn(CC3CCCCC3)c2C)C(C)(C)C)cc1 [I-478]"
  reported.result: "> 75%"

# get_value(readout='Dmax', item= Cc1cc(N(C)c2ccc(-c3cnn(CC4CCCC4)c3C)c(C(=O)NS(=O)(=O)c3ccc(N4CCC(C(=O)N[C@H](C(=O)N5C[C@H](O)C[C@H]5C(=O)N[C@@H](C)c5ccc(-c6scnc6C)cc5)C(C)(C)C)CC4)cc3)n2)nnc1Nc1nc2cccnc2s1 [I-457] ) 50 to 75%

Bench note: what Dmax did Cc1cc(N(C)c2ccc(-c3cnn(CC45CC6CC(CC(C6)C4)C5)c3C)c(C(=O)NS(=O)(=O)CCCCCC(=O)N[C@H](C(=O)N3C[C@H](O)C[C@H]3C(=O)N[C@@H](C)c3ccc(-c4scnc4C)cc3)C(C)(C)C)n2)nnc1Nc1nc2ccccc2s1 [I-356] show? > 75%

Recorded Dmax of Cc1ncsc1-c1ccc([C@H](C)NC(=O)[C@@H]2C[C@@H](O)CN2C(=O)[C@@H](NC(=O)[C@H]2CC[C@H](N3CCC(S(=O)(=O)NC(=O)c4nc(N5CCc6cccc(C(=O)Nc7nc8ccccc8s7)c6C5)ccc4-c4cnn(CC5CCCCC5)c4C)CC3)CC2)C(C)(C)C)cc1 [I-357] , please. > 75%

Item Cc1ncsc1-c1ccc(CNC(=O)[C@@H]2C[C@@H](O)CN2C(=O)[C@@H](NC(=O)C2(F)CC2)C(C)(C)C)c(OCCN2CCC(CS(=O)(=O)NC(=O)c3nc(N4CCc5cccc(C(=O)Nc6nc7ccccc7s6)c5C4)ccc3-c3cnn(CC4CCCCC4)c3C)CC2)c1 [I-189] has what recorded Dmax? 50 to 75%
